B1: PSD2 (parent)
chain: PLMGETQERERVLTHFSRRYCQCN

variants of: B1; assay: protein stability index of a GFP-peptide fusion (GPS, HEK-293T) (PSI 1-6); higher = more stable; settings: c terminus: a fixed tail appended;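 note: lentivirally expressed fusions sorted by FACS into six bins by GFP to DsRed ratio, PSI derived from sequencing read proportions per bin multiplied by bin number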
Catalogue of protein stability index readings, one per entry.
The reply should be a number, written without any unit.

Here's what some known entries look like.
{"mutant name": "Y20D", "protein stability index": 4.19}
{"mutant name": "R19M", "protein stability index": 2.22}
{"mutant name": "Q7V", "protein stability index": 3.27}
{"mutant name": "R18K", "protein stability index": 3.09}
{"mutant name": "E8Q", "protein stability index": 3.54}
{"mutant name": "R11N", "protein stability index": 3.14}
{"mutant name": "M3K", "protein stability index": 3.13}
{"mutant name": "H15F", "protein stability index": 1.47}
{"mutant name": "Q7L", "protein stability index": 2.61}
{"mutant name": "E10M", "protein stability index": 1.93}

Challenge: Given the entry "R9Q" , report its measured protein stability index.
Response given: 2.18
